experimental.details: chemical genetic growth profiling, strain panel (AID 1159580);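 further: tested at 20 µM; growth read once vehicle control cultures reached saturation at 30 °C; lower values mean less growth of the strain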
particulars: S. cerevisiae deletion strains, growth OD, locus YMR078C, strain ctf18
Out of some 5,500 compounds screened, about 2,000 (36%) were called active. Inconclusive results (about 18%) are left out. No stated cut-off is given here; in the data, active means normalized growth mostly below about 0.91 (no sharp cut-off); inconclusive means no clear call, values can overlap the other calls; inactive means mostly above about 0.92. The list shows a part of the results.
Classes used: True for active, False for inactive

[[record]]
compound = "COc1cc2c(cc1O)C(Cc1ccc(O)cc1)N(C)CC2 (stereo not given)"
label_class = "False"

[[record]]
compound = "CN[C@@H]1[C@H](OC2[C@H](O[C@H]3[C@H](O)[C@@H](O)[C@H](N=C(N)N)[C@@H](O)[C@@H]3N=C(N)N)O[C@@H](C)[C@]2(O)C=O)O[C@@H](CO)[C@H](O)[C@H]1O (stereo not given in full)"
label_class = "False"

[[record]]
compound = "CN(C)N=Nc1nc[nH]c1C(N)=O"
label_class = "False"

[[record]]
compound = "CC(CCC(=O)O)[C@H]1CCC2C3C(C[C@H](O)[C@@]21C)[C@@]1(C)CC[C@@H](O)C[C@H]1C[C@H]3O (stereo not given in full)"
label_class = "False"

[[record]]
compound = "COc1cc(S(C)=O)ccc1-c1nc2ncccc2[nH]1 (stereo not given)"
label_class = "False"

[[record]]
compound = "CSc1ccc2c(c1)N(CCC1CCCCN1C)c1ccccc1S2 (stereo not given)"
label_class = "False"

[[record]]
compound = "CC(CN(C)C)CN1c2ccccc2CCc2ccccc21 (stereo not given)"
label_class = "False"

[[record]]
compound = "CC(CCC(=O)O)[C@H]1CCC2C3CC[C@@H]4C[C@H](O)CC[C@]4(C)C3C[C@H](O)[C@@]21C (stereo not given in full)"
label_class = "False"

[[record]]
compound = "CC(=O)Nc1nnc(S(N)(=O)=O)s1"
label_class = "False"

[[record]]
compound = "COC(=O)c1c(C)cc(OC(=O)c2c(C)cc(O)c(C=O)c2O)c(C)c1O"
label_class = "False"

[[record]]
compound = "Nc1ccncc1"
label_class = "False"

[[record]]
compound = "CC1CC2C3CC(F)C4=CC(=O)C=CC4(C)C3(F)C(O)CC2(C)C1C(=O)COC(=O)C(C)(C)C (stereo not given)"
label_class = "False"

[[record]]
compound = "COC(=O)c1c(C)cc(OC(=O)c2c(C)c(Cl)c(O)c(C=O)c2O)c(C)c1O"
label_class = "False"

[[record]]
compound = "CC(=O)N=c1sc(S(N)(=O)=O)nn1C"
label_class = "False"

[[record]]
compound = "COc1cc(OC)c(OC)cc1C=O"
label_class = "False"

[[record]]
compound = "CNCCCN1c2ccccc2CCc2ccccc21"
label_class = "False"

[[record]]
compound = "COc1cc(C)c(C(=O)Oc2cc(C)c(C(=O)O)c(O)c2C)c(OC)c1C"
label_class = "False"

[[record]]
compound = "N[C@@H](Cc1cc(I)c(Oc2ccc(O)c(I)c2)c(I)c1)C(=O)O"
label_class = "False"

[[record]]
compound = "CC(=O)Nc1ccccc1"
label_class = "False"

[[record]]
compound = "C[C@@H]1CC2C3C[C@H](F)C4=CC(=O)C=C[C@]4(C)[C@@]3(F)[C@@H](O)C[C@]2(C)[C@@]1(O)C(=O)COC(=O)C(C)(C)C (stereo not given in full)"
label_class = "False"

[[record]]
compound = "CN1CCN(C2=Nc3ccccc3Oc3ccc(Cl)cc32)CC1"
label_class = "False"

[[record]]
compound = "N[C@@H](Cc1cc(I)c(Oc2cc(I)c(O)c(I)c2)c(I)c1)C(=O)O"
label_class = "True"

[[record]]
compound = "Cc1cc(O)c(C=O)c2c1C(=O)Oc1c(C)c(O)c3c(c1O2)C(O)OC3=O (stereo not given)"
label_class = "False"

[[record]]
compound = "N[C@H](Cc1cc(I)c(Oc2ccc(O)c(I)c2)c(I)c1)C(=O)O"
label_class = "False"

[[record]]
compound = "CCC(=O)c1ccc2c(c1)N(CC(C)N(C)C)c1ccccc1S2 (stereo not given)"
label_class = "False"

[[record]]
compound = "O=C(Nc1ccccc1)Nc1ccccc1"
label_class = "False"

[[record]]
compound = "CCOC(=O)[C@H](CCc1ccccc1)N[C@@H](C)C(=O)N1Cc2ccccc2C[C@H]1C(=O)O"
label_class = "False"

[[record]]
compound = "S=P(N1CC1)(N1CC1)N1CC1"
label_class = "False"

[[record]]
compound = "CC(CN1c2ccccc2Sc2cccnc21)N(C)C (stereo not given)"
label_class = "False"

[[record]]
compound = "CCC(=O)Nc1ccc(Cl)c(Cl)c1"
label_class = "False"

[[record]]
compound = "CC12CC3CC(C)(C1)CC(N)(C3)C2"
label_class = "False"

[[record]]
compound = "CC(=O)O[C@H]1C[C@@H](OC(C)=O)C(C)(C)C2CC(=O)[C@]3(C)C(CC[C@@]4(C)[C@H](c5ccoc5)OC(=O)[C@H]5O[C@]543)[C@]21C (stereo not given in full)"
label_class = "False"

[[record]]
compound = "Cc1cc(O)c(C=O)c2c1C(=O)Oc1c(COC(=O)/C=C/C(=O)O)c(O)c(C(=O)O)c(C)c1O2"
label_class = "False"

[[record]]
compound = "OC1=Cc2c(O)cc(O)cc2OC1(O)c1ccc(O)c(O)c1 (stereo not given)"
label_class = "False"

[[record]]
compound = "CC(CN1c2ccccc2Sc2ccccc21)N(C)C (stereo not given)"
label_class = "False"

